# Test system: LATS2
# condition-summary: concentration: 1 μM, replicates: in singlicate; n = 1
Reported %Inh is given for each of the following compounds.

- substance-smiles: "O=c1cc(N2CCOCC2)nc2n(Cc3ccc(F)c(Cl)c3)ccn12"
  %Inh, %: 0
- substance-smiles: "COc1cc2nccc(Nc3ccc(OCc4ccc(NC(C)=O)cc4)cc3)c2cc1OC.Cl"
  %Inh, %: 0
- substance-smiles: "CCc1nc(-c2cccc(C)c2)c(-c2ccncc2)s1"
  %Inh, %: 0
- substance-smiles: "CCC(=O)c1c(-c2ccccc2)c2cc(Cl)ccc2c(=O)n1Cc1cc(S(C)(=O)=O)n(CC(N)=O)n1"
  %Inh, %: 0
- substance-smiles: "COc1ccc(-c2coc3ccc(-c4nnc(SCc5cccc(C#N)c5)o4)cc23)cc1"
  %Inh, %: 11
- substance-smiles: "Nc1ncnc2c1ncn2-c1cccc(F)c1"
  %Inh, %: 42
- substance-smiles: "Fc1cccc(CSc2nnc(-c3ccc4c(c3)CCO4)o2)c1"
  %Inh, %: 31
- substance-smiles: "CN1C(=O)C(Nc2cc(Cl)c(O)c(Cl)c2)=C(c2ccc(Cl)cc2)C1=O"
  %Inh, %: 0
- substance-smiles: "COc1ccc(-c2cc3c(C)nc(N)nc3n([C@H]3CC[C@H](O)CC3)c2=O)cn1"
  %Inh, %: 7

* * *

# System: TNIK
# condition-summary: concentration: 1 μM, replicates: in singlicate; n = 1
measured-parameter: %Inh (%)

- compound: "O=C(NCCNc1ccnc(Nc2ccc(F)cc2)n1)Nc1ccc2c(c1)OCO2"
  assayed-system: "TNIK"
  experimental-value: 0
- compound: "COc1cc(Nc2nccc(N3CCC(NC(=O)C4COc5ccccc5O4)C3)n2)cc(OC)c1OC (centres unmarked)"
  assayed-system: "TNIK"
  experimental-value: 0
- compound: "O=C(Nc1n[nH]c2nc(-c3ccccc3)c(Br)cc12)C1CC1"
  assayed-system: "TNIK"
  experimental-value: 14
- compound: "Nc1ncnc2c1ncn2-c1ccc(Cl)cc1"
  assayed-system: "TNIK"
  experimental-value: 0
- compound: "Cn1c(=O)c(F)c(Nc2ccc(I)cc2F)c2c(=O)n(OC[C@H](O)CO)cnc21"
  assayed-system: "TNIK"
  experimental-value: 0
- compound: "Fc1cccc(CSc2nnc(-c3ccc4c(c3)CCO4)o2)c1"
  assayed-system: "TNIK"
  experimental-value: 0
- compound: "CCCC(=O)Nc1n[nH]c2ncc(-c3cccc4ccccc34)cc12"
  assayed-system: "TNIK"
  experimental-value: 0
- compound: "Nc1n[nH]c2nnc(-c3ccccc3)c(-c3ccccc3)c12"
  assayed-system: "TNIK"
  experimental-value: 0
- compound: "COc1cc2ncn(-c3cc(OCc4ccncc4Br)c(C(N)=O)s3)c2cc1OC"
  assayed-system: "TNIK"
  experimental-value: 39
- compound: "COC(=O)c1c(-c2ccccc2)c2cc(C)ccc2c(=O)n1Cc1ccccc1"
  assayed-system: "TNIK"
  experimental-value: 0
- compound: "Cc1nnc(-c2ccc(C)c(-c3ccc(C(=O)O)cc3)c2)o1"
  assayed-system: "TNIK"
  experimental-value: 0

* * *

# System: MST1R;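 also: kd values determined as follow-up on hits from a single-replicate KINOMEscan panel screen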

- compound: "O=C(Nc1n[nH]c2nc(-c3ccccc3)c(Br)cc12)C1CC1 [SB-708998]"
  Kd: "> 10 µM"
